assay target: Epidermal growth factor receptor (Homo sapiens, UniProt P00533)
Sequence (P00533 whole entry, the tested form may be a part): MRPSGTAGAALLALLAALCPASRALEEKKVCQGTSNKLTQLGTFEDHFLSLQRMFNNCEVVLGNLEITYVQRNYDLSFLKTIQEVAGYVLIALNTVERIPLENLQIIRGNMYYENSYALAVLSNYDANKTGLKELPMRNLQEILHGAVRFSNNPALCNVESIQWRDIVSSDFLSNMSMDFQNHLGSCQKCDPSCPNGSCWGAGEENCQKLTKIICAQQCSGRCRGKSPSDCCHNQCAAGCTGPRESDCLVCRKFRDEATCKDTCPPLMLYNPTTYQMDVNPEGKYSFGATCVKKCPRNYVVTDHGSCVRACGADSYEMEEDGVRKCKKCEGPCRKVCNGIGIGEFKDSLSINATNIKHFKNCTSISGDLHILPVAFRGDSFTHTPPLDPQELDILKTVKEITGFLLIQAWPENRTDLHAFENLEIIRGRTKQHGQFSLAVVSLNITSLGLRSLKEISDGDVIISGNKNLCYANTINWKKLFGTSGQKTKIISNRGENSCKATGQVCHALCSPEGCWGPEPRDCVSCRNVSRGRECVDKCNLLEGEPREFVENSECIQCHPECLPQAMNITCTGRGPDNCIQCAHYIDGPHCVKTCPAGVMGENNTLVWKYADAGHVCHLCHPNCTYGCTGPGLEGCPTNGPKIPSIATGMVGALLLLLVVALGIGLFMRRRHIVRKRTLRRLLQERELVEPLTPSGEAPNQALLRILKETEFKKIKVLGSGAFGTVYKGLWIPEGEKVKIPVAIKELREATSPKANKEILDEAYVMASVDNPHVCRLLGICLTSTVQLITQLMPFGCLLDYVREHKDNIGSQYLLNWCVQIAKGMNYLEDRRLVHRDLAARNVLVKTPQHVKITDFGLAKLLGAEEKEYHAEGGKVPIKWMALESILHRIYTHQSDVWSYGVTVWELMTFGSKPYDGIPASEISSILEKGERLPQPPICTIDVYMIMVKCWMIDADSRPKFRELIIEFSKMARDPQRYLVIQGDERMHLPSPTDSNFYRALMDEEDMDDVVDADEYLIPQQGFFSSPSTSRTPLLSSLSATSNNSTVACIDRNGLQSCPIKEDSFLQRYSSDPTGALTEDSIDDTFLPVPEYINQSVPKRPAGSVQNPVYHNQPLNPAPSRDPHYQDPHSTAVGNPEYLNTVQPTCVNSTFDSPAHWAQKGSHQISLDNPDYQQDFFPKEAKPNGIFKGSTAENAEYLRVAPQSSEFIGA
experiment description: Inhibition of recombinant human wild type GST-tagged EGFR cytoplasmic domain (668 to 1210 residues) expressed in baculovirus using tyr4 peptide as substrate after 1 hr by FRET-based Z'-Lyte assay
pIC50: −log10 of the molar value.
Binary call on pIC50: yes from 6 upward, no beneath that.

CCC(=O)N1CC[C@H](N2C(=O)N(c3cc(OC)ccc3F)Cc3cnc(Nc4ccc(N5CCN(C)CC5)cc4OC)nc32)C1 ... no
Cc1cc(Nc2ncc3c(n2)N([C@H]2CCN(C(=O)C(C)C)C2)C(=O)N(c2ccccc2Cl)C3)ccc1N1CCN(C)CC1 ... yes
CCC(=O)N1CC[C@H](N2C(=O)N(c3cc(OC)ccc3F)Cc3cnc(Nc4ccc(N5CCN(C)CC5)c(OC)c4)nc32)C1 ... yes
FC(F)(F)c1ccc(CNc2ccc(Cc3c[nH]c4ncc(Cl)cc34)cn2)cn1 ... no
Cc1cc(Nc2ncc3c(n2)N([C@H]2CCN(C(=O)C(C)(C)C)C2)C(=O)N(c2ccccc2Cl)C3)ccc1N1CCN(C)CC1 ... yes
CCC(=O)N1CC[C@H](N2C(=O)N(c3cc(OC)ccc3F)Cc3cnc(Nc4ccc(N5CCC(N(C)C)CC5)c(C)c4)nc32)C1 ... yes
CCC(=O)N1CC[C@H](N2C(=O)N(c3cc(OC)ccc3F)Cc3cnc(Nc4ccc(N5CCCCC5)c(C)c4)nc32)C1 ... yes
CCC(=O)N1CC[C@H](N2C(=O)N(c3cccc(OC)c3Cl)Cc3cnc(Nc4ccc(N5CCN(C)CC5)c(C)c4)nc32)C1 ... yes
CCC(=O)N1CC[C@H](N2C(=O)N(c3cc(OC)ccc3F)Cc3cnc(Nc4ccc(N5CCC6(CCN(C)CC6)CC5)c(C)c4)nc32)C1 ... yes

* * *

assay target: Macrophage colony-stimulating factor 1 receptor (Homo sapiens)
Sequence (P07333 whole entry, the tested form may be a part): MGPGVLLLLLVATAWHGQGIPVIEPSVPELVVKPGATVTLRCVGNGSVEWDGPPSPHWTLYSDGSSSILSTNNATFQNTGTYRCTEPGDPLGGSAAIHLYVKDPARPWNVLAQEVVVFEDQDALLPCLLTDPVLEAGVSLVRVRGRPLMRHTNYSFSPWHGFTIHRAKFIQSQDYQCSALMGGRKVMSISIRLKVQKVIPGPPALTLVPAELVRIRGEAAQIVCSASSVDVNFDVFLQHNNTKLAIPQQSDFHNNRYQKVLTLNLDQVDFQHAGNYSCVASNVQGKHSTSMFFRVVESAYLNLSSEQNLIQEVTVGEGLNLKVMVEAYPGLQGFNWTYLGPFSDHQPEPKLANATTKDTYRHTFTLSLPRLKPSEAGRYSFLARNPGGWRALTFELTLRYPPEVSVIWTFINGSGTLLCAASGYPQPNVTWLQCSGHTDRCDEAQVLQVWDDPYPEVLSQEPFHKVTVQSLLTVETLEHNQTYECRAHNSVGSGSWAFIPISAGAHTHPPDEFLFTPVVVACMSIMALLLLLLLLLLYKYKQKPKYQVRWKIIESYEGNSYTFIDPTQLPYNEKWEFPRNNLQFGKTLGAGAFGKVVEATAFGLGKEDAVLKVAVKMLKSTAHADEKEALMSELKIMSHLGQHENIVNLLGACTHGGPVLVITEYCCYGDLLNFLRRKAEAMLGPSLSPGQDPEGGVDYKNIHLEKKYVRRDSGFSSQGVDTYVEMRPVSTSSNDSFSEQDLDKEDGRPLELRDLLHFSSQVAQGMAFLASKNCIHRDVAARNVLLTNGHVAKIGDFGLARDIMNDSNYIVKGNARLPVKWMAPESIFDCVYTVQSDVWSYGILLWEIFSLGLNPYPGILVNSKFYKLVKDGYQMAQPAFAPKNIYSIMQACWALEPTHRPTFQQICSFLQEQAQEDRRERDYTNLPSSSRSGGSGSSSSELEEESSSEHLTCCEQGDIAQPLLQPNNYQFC
experiment description: Inhibition of recombinant human His-tagged CSF1R cytoplasmic domain (538 to 910 residues) expressed in baculovirus using tyr4 peptide as substrate after 1 hr by FRET-based Z'-Lyte assay
property: IC50 (nM)

Cc1cc(Nc2ncc3c(n2)N([C@H]2CCN(C(=O)C4CCCCC4)C2)C(=O)N(c2ccccc2Cl)C3)ccc1N1CCN(C)CC1 ... 30.6
CCC(=O)N1CC[C@H](N2C(=O)N(c3cccc(C)c3)Cc3cnc(Nc4ccc(N5CCN(C)CC5)c(C)c4)nc32)C1 ... 16.4
CCC(=O)N1CC[C@H](N2C(=O)N(c3cc(OC)ccc3F)Cc3cnc(Nc4ccc(N5C[C@H]6CN(C)C[C@H]6C5)c(C)c4)nc32)C1 ... 7
CCC(=O)N1CC[C@H](N2C(=O)N(c3cc(OC)ccc3F)Cc3cnc(Nc4ccc(N5CCN(C)CC5)c(OC)c4)nc32)C1 ... 5.8
CCC(=O)N1CC[C@H](N2C(=O)N(c3cc(OC)ccc3F)Cc3cnc(Nc4ccc(N5CCN(C)CC5)c(C)c4)nc32)C1 ... 2
CCC(=O)N1CC[C@H](N2C(=O)N(c3cc(OC)ccc3F)Cc3cnc(Nc4ccc(N5CCN(C)CC5)cc4C)nc32)C1 ... 20.2
CCC(=O)N1CC[C@H](N2C(=O)N(c3ccccc3OC)Cc3cnc(Nc4ccc(N5CCN(C)CC5)c(C)c4)nc32)C1 ... 5.1
CCC(=O)N1CC[C@H](N2C(=O)N(c3cc(OC)ccc3F)Cc3cnc(Nc4ccc(N5CCN(C)CC5)c(Cl)c4)nc32)C1 ... 14.8

* * *

Organism: Homo sapiens
experiment description: Selectivity ratio of IC50 for recombinant human wild type GST-tagged EGFR cytoplasmic domain (668 to 1210 residues) expressed in baculovirus to IC50 for recombinant human His-tagged CSF1R cytoplasmic domain (538 to 910 residues) expressed in baculovirus
Entries annotated with measured Ratio IC50
property: Ratio IC50

CCC(=O)N1CC[C@H](N2C(=O)N(c3cc(OC)ccc3F)Cc3cnc(Nc4ccc(N5CCN(C)CC5)c(C)c4)nc32)C1 ... 99 to 200
CCC(=O)N1CC[C@H](N2C(=O)N(c3cccc(OC)c3Cl)Cc3cnc(Nc4ccc(N5CCN(C)CC5)c(C)c4)nc32)C1 ... 99 to 200
CCC(=O)N1CC[C@H](N2C(=O)N(c3cccc(OC)c3F)Cc3cnc(Nc4ccc(N5CCN(C)CC5)c(C)c4)nc32)C1 ... 99 to 200
